- measurement.target: Adenosine receptor A3 (Homo sapiens)
- Sequence (P0DMS8 whole entry): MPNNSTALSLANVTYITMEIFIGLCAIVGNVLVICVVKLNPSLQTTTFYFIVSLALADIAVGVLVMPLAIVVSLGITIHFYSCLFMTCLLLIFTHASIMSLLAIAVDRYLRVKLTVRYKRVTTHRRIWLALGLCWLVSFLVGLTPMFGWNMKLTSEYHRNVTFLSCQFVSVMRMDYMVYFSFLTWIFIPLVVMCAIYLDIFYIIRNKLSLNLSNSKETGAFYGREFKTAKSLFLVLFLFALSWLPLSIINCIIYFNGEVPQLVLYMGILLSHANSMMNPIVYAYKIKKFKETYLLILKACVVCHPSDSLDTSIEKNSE
quantity: Ki

In: Using the record for Clc1ccc(Nc2nc3ccccc3c3[nH]c(C4CCCCC4)nc23)cc1Cl , report its Ki.
Out: 2000 nM

---

- measurement.target: UniProt P10635
- Sequence (P10635 whole entry): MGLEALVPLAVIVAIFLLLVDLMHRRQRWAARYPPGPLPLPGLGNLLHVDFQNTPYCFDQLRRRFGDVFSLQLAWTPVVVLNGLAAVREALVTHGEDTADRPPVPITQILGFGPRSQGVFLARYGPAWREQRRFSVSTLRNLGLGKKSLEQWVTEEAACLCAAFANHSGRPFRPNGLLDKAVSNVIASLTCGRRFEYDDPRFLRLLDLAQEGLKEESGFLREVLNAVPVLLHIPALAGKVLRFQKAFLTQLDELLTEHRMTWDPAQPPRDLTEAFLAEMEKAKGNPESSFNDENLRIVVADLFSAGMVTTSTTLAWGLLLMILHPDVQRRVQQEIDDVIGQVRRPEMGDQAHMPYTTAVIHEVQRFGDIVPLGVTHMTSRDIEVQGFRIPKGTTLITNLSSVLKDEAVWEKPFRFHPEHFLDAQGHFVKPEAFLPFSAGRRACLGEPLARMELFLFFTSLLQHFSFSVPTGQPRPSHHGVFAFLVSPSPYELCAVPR
quantity: pIC50
Conceptually, pIC50 converts a concentration in mol/L into minus its log10.

In: Give UniProt P10635 pIC50 for Clc1ccc(COC(Cn2ccnc2)c2ccc(Cl)cc2Cl)c(Cl)c1 (stereo unspecified)
Out: 5.79

---

- measurement.protocol: Tmax in Wistar rat plasma at 1 to 10 mg/kg, po and measured after 2 hrs
- Type: ADME, organism-based
- condition: dose 1-10 mg/kg
quantity: Tmax (h)
Report the value in h with no unit label.

In: Using the record for Clc1ccc(Nc2nc3ccccc3c3[nH]c(C4CCC=CCC4)nc23)cc1Cl , report its Tmax.
Out: 2
